Reported AUC values follow for various compounds
ASSAY_SUMMARY: Pharmacokinetic evaluation in SD rats
Format: in vivo
RUN_CONDITIONS: rat, plasma, 3 mg/kg, PO 3 mpk, read-out: Integral concentration AUC for PO
# value in µM·h; strip the unit string

Answered examples (3):
Requested field: AUC. Item: C[C@H]1CCN1c1nc(N2CC3(C[C@@H]3C(=O)O)C2)c2c(n1)C(F)(F)CC2 [WX042]
20.5

Would you mind telling me what AUC value was observed for C[C@H]1CCN1c1nc(Nc2ccc(CC(=O)O)cc2)c2ccsc2n1 [WX006] ?
39.5

Item under review: C[C@H]1CCN1c1nc(N2C[C@@H]3[C@@H](CC(=O)O)[C@@H]3C2)c2ccsc2n1 [WX004] . Reported AUC?
64.5

Next:
What measured AUC goes with C[C@H]1CCN1c1nc(N2C[C@@H]3[C@@H](CC(=O)O)[C@@H]3C2)c2ncsc2n1 [WX001] ?
163

So what does the record say about AUC for C[C@H]1CCN1c1nc(N2CC3(C[C@H]3C(=O)O)C2)c2c(n1)C(F)(F)CC2 [WX043] ?
12

====

ASSAY_SUMMARY: Pharmacokinetic evaluation in SD rats
Format: in vivo
RUN_CONDITIONS: rat, plasma, 3 mg/kg, IV 1 mpk, PO 3 mpk, read-out: Bioavailability F
Method: In vivo pharmacokinetics of compounds in SD rats were tested. Pharmacokinetic profiles in rodents following intravenous and oral administration of the compounds were tested by standard protocols. […] Drug concentration was analyzed by LC-MS/MS, and pharmacokinetic parameters were calculated by Phoenix WinNonlin software.
Examples of compounds with documented bioavailability follow.
Reply numerically in %, unit not repeated.

Known results for compounds:
Name the reported bioavailability value associated with the compound C[C@H]1CCN1c1nc(N2C[C@@H]3[C@@H](CC(=O)O)[C@@H]3C2)c2ncsc2n1
158

# input compound: C[C@H]1CCN1c1nc(N2C[C@@H]3[C@@H](CC(=O)O)[C@@H]3C2)c2ccsc2n1 ; wanted: its bioavailability
80

Next, consider the following compound.
Look at this compound and give its reported bioavailability. C[C@H]1CCN1c1nc(Nc2ccc(CC(=O)O)cc2)c2ccsc2n1
44

====

ASSAYED_SYSTEM: Recombinant Human Ketohexokinase (KHK) (Homo sapiens (Human), UniProt P50053)
Sequence (P50053 whole entry): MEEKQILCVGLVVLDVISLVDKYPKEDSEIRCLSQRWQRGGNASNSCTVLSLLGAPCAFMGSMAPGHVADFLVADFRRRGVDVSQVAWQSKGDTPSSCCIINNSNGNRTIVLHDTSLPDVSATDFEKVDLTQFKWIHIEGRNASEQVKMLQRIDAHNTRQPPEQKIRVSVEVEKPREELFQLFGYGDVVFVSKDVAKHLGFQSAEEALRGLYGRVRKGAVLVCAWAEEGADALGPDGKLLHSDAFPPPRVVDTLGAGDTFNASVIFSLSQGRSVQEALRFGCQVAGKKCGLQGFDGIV
ASSAY_SUMMARY: Ketohexokinase assay (KHK assay), ADP-Glo
IC50 less than 90 nM is Met; IC50 greater than or equal to 90 nM is Not met.

Regarding C[C@H]1CCN1c1nc(N2CC3(C2)CC3(C)C(=O)O)c2cc(Cl)sc2n1 (stereo partly drawn) , kindly confirm whether its IC50 is beneath 90 nM.
Not met

Here's an entry: C[C@H]1CCN1c1nc2c(c(N3C[C@@H]4[C@@H](CC(=O)O)[C@@H]4C3)n1)CSC2 . Is its IC50 below 90 nM?
Not met

Is 90 nM strictly greater than the molecule's reported IC50? molecule: C[C@H]1CCN1c1nc(N2C[C@@H]3[C@@H](CC(=O)O)[C@@H]3C2)c2ncsc2n1
Not met

Lab note: confirm whether the reported IC50 for this molecule is below 90 nM, equality not counting. molecule: C[C@H]1CCN1c1nc(N2CC3(C[C@@H]3CC(=O)O)C2)c2ccsc2n1
Not met

hey, is IC50 for C[C@H]1CCN1c1nc(Nc2ccc(C(=O)O)cc2)c2ccsc2n1 lower than 90 nM or not?
Met

Say whether its IC50 is strictly beneath 90 nM. Entry: C[C@H]1CCN1c1nc(-c2cccc(CCC(=O)O)n2)c2ccsc2n1
Not met

# strict comparison: is reported IC50 < 90 nM? input = C[C@H]1CCN1c1nc(N2CC3(CC3C(=O)O)C2)c2cccc(F)c2n1 (stereo partly drawn)
Not met

Dear colleague, could you confirm whether IC50 of C[C@H]1CCN1c1nc(Nc2ccc(CC(=O)O)cc2)c2ccsc2n1 falls below 90 nM? Thanks.
Met

Please check: IC50 for C[C@H]1CCN1c1nc(-c2cccc(CCC(=O)O)c2)c2ccsc2n1 , strictly under 90 nM or not?
Met

Check if IC50 falls below 90 nM for C[C@H]1CCN1c1nc(N2C[C@@H]3[C@@H](CC(=O)O)[C@@H]3C2)c2scnc2n1 .
Not met

Take the molecule C[C@H]1CCN1c1nc(Nc2ccc(CC(=O)O)c(F)c2)c2ccsc2n1 and say whether its IC50 is less than 90 nM.
Met

Please indicate whether the reported IC50 of C[C@H]1CCN1c1nc(N2CC3(CC3C(=O)O)C2)c2cccc(Cl)c2n1 (stereo partly drawn) is strictly below 90 nM.
Not met

====

ASSAY_SUMMARY: Liver-blood ratio, tissue distribution in rats
Assay type: in vivo, SD rats
RUN_CONDITIONS: SD, rat, plasma, 1 mg/kg, PO 1 mpk, 6.0 h, read-out: Plasma concentration
QUANTITY: concentration at 6 h (nM)
Field format: number, assumed nM, no unit text.

Solved cases below.
Consider the compound C[C@H]1CCN1c1nc(Nc2ccc(CC(=O)O)cc2)c2ccsc2n1 [WX006] and give its measured concentration at 6 h.
1780

Recorded concentration at 6 h of C[C@H]1CCN1c1nc(N2C[C@@H]3[C@@H](CC(=O)O)[C@@H]3C2)c2ccsc2n1 [WX004] , please.
3660

Which value of concentration at 6 h has been reported for C[C@H]1CCN1c1nc(Nc2ccc(C(=O)O)cc2)c2ccsc2n1 [WX012] in the records?
145

Next:
Endpoint output: concentration at 6 h of C[C@H]1CCN1c1nc(N2C[C@@H]3[C@@H](CC(=O)O)[C@@H]3C2)c2ncsc2n1 [WX001] . Value?
3320

====

Some molecules, each annotated with its measured Kp at 2 h.
ASSAY_SUMMARY: Liver-blood ratio, tissue distribution in rats
Format: in vivo, SD rats
RUN_CONDITIONS: SD, rat, brain/plasma, 1 mg/kg, PO 1 mpk, 2.0 h, read-out: Brain-blood ratio

Any idea what Kp at 2 h was measured for C[C@H]1CCN1c1nc(N2C[C@@H]3[C@@H](CC(=O)O)[C@@H]3C2)c2ccsc2n1 ?
0.019

Please report the recorded Kp at 2 h for C[C@H]1CCN1c1nc(N2C[C@@H]3[C@@H](CC(=O)O)[C@@H]3C2)c2ncsc2n1 .
0.017

====

ASSAY_SUMMARY: Liver-blood ratio, tissue distribution in rats
Type: in vivo, SD rats
RUN_CONDITIONS: SD, rat, liver/plasma, 1 mg/kg, PO 1 mpk, 1.5 h, read-out: Liver-blood ratio
QUANTITY: Kp at 1.5 h
Keep it simple and answer with nothing but the number.

Past entries and their recorded results:
Name the recorded Kp at 1.5 h for C[C@H]1CCN1c1nc(Nc2ccc(CC(=O)O)cc2)c2ccsc2n1 .
1.2

Bench note: what Kp at 1.5 h did C[C@H]1CCN1c1nc(N2C[C@@H]3[C@@H](CC(=O)O)[C@@H]3C2)c2ncsc2n1 show?
0.491

Which value of Kp at 1.5 h has been reported for C[C@H]1CCN1c1nc(Nc2ccc(C(=O)O)cc2)c2ccsc2n1 in the records?
2.62

Next:
I would be grateful if you could share the reported Kp at 1.5 h for C[C@H]1CCN1c1nc(N2C[C@@H]3[C@@H](CC(=O)O)[C@@H]3C2)c2ccsc2n1 .
0.943

====

Listed compounds paired with reported concentration at 6 h
ASSAY_SUMMARY: Liver-blood ratio, tissue distribution in rats
Type: in vivo, SD rats
RUN_CONDITIONS: SD, rat, liver, 1 mg/kg, PO 1 mpk, 6.0 h, read-out: Liver tissue concentration
The reply must contain the numeric value and, after it, the unit.

Endpoint output: concentration at 6 h of C[C@H]1CCN1c1nc(N2C[C@@H]3[C@@H](CC(=O)O)[C@@H]3C2)c2ccsc2n1 [WX004] . Value?
3900 nM

Param item = C[C@H]1CCN1c1nc(N2C[C@@H]3[C@@H](CC(=O)O)[C@@H]3C2)c2ncsc2n1 [WX001] ; retrieve measured concentration at 6 h.
1790 nM

Recorded concentration at 6 h of C[C@H]1CCN1c1nc(Nc2ccc(C(=O)O)cc2)c2ccsc2n1 [WX012] , please.
634 nM

We now examine a further compound.
Return reported concentration at 6 h; argument: C[C@H]1CCN1c1nc(Nc2ccc(CC(=O)O)cc2)c2ccsc2n1 [WX006]
2180 nM

====

ASSAYED_SYSTEM: Recombinant Human Ketohexokinase (KHK) (Homo sapiens (Human), UniProt P50053)
ASSAY_SUMMARY: Ketohexokinase assay (KHK assay), ADP-Glo
Type: biochemical
pIC50: −log10 of the molar value.
Label false (0) if pIC50 falls below 7; label true (1) in every other case.

Example entries and their recorded answers appear below.
Decide: is the reported value of pIC50 for C[C@H]1CCN1c1nc(N2C[C@@H]3[C@@H](CC(=O)O)[C@@H]3C2)c2c(F)csc2n1 [WX030] equal to or greater than 7?
true (1)

Identify whether the reported pIC50 of the following compound is 7 or greater: C[C@H]1CCN1c1nc(-c2cncc(OCC(=O)O)c2)c2ccsc2n1 [WX039]
true (1)

Please indicate if the recorded pIC50 for C[C@H]1CCN1c1nc(N2C[C@@H]3[C@@H](CC(=O)O)[C@@H]3C2)c2sccc2n1 [WX046] meets or exceeds 7.
false (0)

Others:
Determine whether measured pIC50 meets or exceeds 7 for C[C@H]1CCN1c1nc(N2CC(CC(=O)O)C2)c2ccsc2n1 [WX018]
false (0)

Please tell me: is the compound C[C@H]1CCN1c1nc(N2CC3(C[C@H]3C(=O)O)C2)c2cccc(F)c2n1 [WX040] at or over 7 in terms of pIC50?
false (0)

Given C[C@H]1CCN1c1nc(N2CC3(C[C@@H]3CC(=O)O)C2)c2cc(Cl)sc2n1 [WX056] , state whether its pIC50 is at least 7.
false (0)

hey, is pIC50 for this one >= 7? C[C@H]1CCN1c1nc(N2C[C@@H]3[C@@H](CC(=O)O)[C@@H]3C2)c2scc(C#N)c2n1 [WX023]
false (0)
